Parameter inhibition at 10 µM: see the listing below.
assayedTarget: ROCK1 (Homo sapiens)
Sequence (Q13464 whole entry, species assumed): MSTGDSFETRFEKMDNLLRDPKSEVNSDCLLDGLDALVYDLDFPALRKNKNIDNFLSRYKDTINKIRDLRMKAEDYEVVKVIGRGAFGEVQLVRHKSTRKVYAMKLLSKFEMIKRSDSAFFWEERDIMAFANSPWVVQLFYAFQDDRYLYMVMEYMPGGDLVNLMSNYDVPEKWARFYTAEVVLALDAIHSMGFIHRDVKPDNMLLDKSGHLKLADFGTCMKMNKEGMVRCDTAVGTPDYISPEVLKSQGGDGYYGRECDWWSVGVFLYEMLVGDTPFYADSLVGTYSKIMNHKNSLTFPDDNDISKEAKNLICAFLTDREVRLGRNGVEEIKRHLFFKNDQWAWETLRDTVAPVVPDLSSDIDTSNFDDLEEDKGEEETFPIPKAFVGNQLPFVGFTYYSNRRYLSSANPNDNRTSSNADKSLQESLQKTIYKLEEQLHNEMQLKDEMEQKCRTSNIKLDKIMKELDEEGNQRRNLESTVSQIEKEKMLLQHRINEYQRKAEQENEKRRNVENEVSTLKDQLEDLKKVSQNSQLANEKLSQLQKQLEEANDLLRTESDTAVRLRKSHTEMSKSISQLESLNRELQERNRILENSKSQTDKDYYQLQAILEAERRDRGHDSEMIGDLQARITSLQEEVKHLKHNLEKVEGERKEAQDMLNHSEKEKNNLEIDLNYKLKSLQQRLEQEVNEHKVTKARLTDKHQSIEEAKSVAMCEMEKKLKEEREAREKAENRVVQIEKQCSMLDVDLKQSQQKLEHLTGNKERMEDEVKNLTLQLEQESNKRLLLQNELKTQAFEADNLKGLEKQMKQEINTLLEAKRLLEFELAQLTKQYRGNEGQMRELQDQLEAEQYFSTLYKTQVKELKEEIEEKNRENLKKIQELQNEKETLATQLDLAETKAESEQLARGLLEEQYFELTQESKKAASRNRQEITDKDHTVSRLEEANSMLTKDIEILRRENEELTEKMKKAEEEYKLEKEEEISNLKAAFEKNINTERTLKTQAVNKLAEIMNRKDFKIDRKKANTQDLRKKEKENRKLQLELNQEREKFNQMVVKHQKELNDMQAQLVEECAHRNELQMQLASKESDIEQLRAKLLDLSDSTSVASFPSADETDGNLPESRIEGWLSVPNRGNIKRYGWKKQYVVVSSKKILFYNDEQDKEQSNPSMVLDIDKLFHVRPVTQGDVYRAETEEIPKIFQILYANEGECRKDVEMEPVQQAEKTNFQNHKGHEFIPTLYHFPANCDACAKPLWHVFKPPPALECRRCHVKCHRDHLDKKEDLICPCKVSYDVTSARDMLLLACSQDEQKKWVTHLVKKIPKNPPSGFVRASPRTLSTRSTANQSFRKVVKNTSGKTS
runDescription: FRET-based coupled-enzyme protein kinase inhibition assay
Type: biochemical
cond: compound at 10 µM, 1% DMSO
Number only, in %; omit the unit.

// below: answered compounds
CN(C)CCNC(=O)OC[C@H]1O[C@@H](n2cnc3c(N)ncnc32)[C@H](O)[C@@H]1O : -7
N#CCCN1CCN(C(=O)OC[C@H]2O[C@@H](n3cnc4c(N)ncnc43)[C@H](O)[C@@H]2O)CC1 : -3

Give inhibition at 10 µM (ROCK1 (Homo sapiens)) of the following compound: `Nc1ncnc2c1ncn2[C@@H]1O[C@H](COC(=O)N2CCC[C@H]2CO)[C@@H](O)[C@H]1O`
-10

Proceed to Nc1ncnc2c1ncn2[C@@H]1O[C@H](COC(=O)N2CCC(Cc3ccc(F)cc3)C2)[C@@H](O)[C@H]1O (stereo partly shown)
-1

Now the compound `Nc1ncnc2c1ncn2[C@@H]1O[C@H](COC(=O)N2CCS(=O)(=O)CC2)[C@@H](O)[C@H]1O`
-6

Further, for `Nc1ncnc2c1ncn2[C@@H]1O[C@H](COC(=O)N2CCN(CCc3ccccc3)CC2)[C@@H](O)[C@H]1O` ?
-12

Also check `Nc1ncnc2c1ncn2[C@@H]1O[C@H](COC(=O)NC[C@H](O)CO)[C@@H](O)[C@H]1O`
2

Another compound to check: `Nc1ncnc2c1ncn2[C@@H]1O[C@H](COC(=O)NCCCc2nc3ccccc3[nH]2)[C@@H](O)[C@H]1O`
18

Same for Nc1ncnc2c1ncn2[C@@H]1O[C@H](COC(=O)N2CCN(Cc3ccccc3)CC2CO)[C@@H](O)[C@H]1O (stereo partly shown)
-7

Next: `CS(=O)(=O)N1CC2(CCN(C(=O)OC[C@H]3O[C@@H](n4cnc5c(N)ncnc54)[C@H](O)[C@@H]3O)CC2)c2ccccc21`
-8

For `CC(C)N1CCC(NC(=O)OC[C@H]2O[C@@H](n3cnc4c(N)ncnc43)[C@H](O)[C@@H]2O)CC1` then?
2

Try this compound too: `Nc1ncnc2c1ncn2[C@@H]1O[C@H](COC(=O)N[C@@H]2CCN(Cc3ccccc3)C2)[C@@H](O)[C@H]1O`
-2

What would you report for `CN1CCN(CCNC(=O)OC[C@H]2O[C@@H](n3cnc4c(N)ncnc43)[C@H](O)[C@@H]2O)CC1` ?
-3

Now try `Nc1ncnc2c1ncn2[C@@H]1O[C@H](COC(=O)NCCN2CCCC2=O)[C@@H](O)[C@H]1O` .
-7

Would you mind doing `Nc1ncnc2c1ncn2[C@@H]1O[C@H](COC(=O)N2CCN(C(=O)N3CCOCC3)CC2)[C@@H](O)[C@H]1O` as well?
-15

And `C[C@@H](NC(=O)OC[C@H]1O[C@@H](n2cnc3c(N)ncnc32)[C@H](O)[C@@H]1O)c1ccc(Cl)cc1` ?
-7
